assay info: Oral bioavailability in overnight fasted Sprague-Dawley rat at 10 mg/kg measured upto 1440 mins by LC/MS/MS analysis
Type: ADME, organism-based
experimental parameters: in vivo
metric: bioavailability (%)
Please state the figure in %; there is no need to write the unit.

Would you kindly share the measured bioavailability for Nc1nonc1-c1nc2ccccc2n1CC(=O)Nc1cnc2ccccc2c1 ? 73.4

----------
assay info: Tmax in overnight fasted Sprague-Dawley rat at 10 mg/kg, iv measured upto 1440 mins by LC/MS/MS analysis
Type: ADME, organism-based
experimental parameters: in vivo
metric: Tmax (min)
Please state the figure in min; there is no need to write the unit.

Would you kindly share the measured Tmax for Nc1nonc1-c1nc2ccccc2n1CC(=O)Nc1cnc2ccccc2c1 ? 1.02
